- STUDY_SYSTEM: human serum protease thrombin (human, UniProt P00734 328-622)
- PROTOCOL: phage binding to protein on beads (data not shown)
MEASURED_PARAMETER: binding result

{"BINDER": "RWCPKYTLECMKDSDCLAECVCLEHGYCGAGPSYIEGRIVGSA (designed binder, not shown: mature gene III protein of M13 phage) [CMTI-I analogue 228, phage isolate]", "MEASURED_PARAMETER": "binding result", "RECORDED_VALUE": "no binding"}
{"BINDER": "RWCPKSTLGCMKDSDCLAECVCLEHGYCGAGPSYIEGRIVGSA (designed binder, not shown: mature gene III protein of M13 phage) [CMTI-I analogue 235, phage isolate]", "MEASURED_PARAMETER": "binding result", "RECORDED_VALUE": "no binding"}
{"BINDER": "RLCPKTDLGCMKDSDCLAECVCLEHGYCGAGPSYIEGRIVGSA (designed binder, not shown: mature gene III protein of M13 phage) [CMTI-I analogue 109, phage isolate]", "MEASURED_PARAMETER": "binding result", "RECORDED_VALUE": "no binding"}
